- System under test: F508delCFTR (Homo sapiens, UniProt P13569, DEL508-508)
- Construct: expressed in transfected cells; host or cells: CFBE41o- human lung-derived epithelial cells (CFBE41o-F508delCFTR-HRP), doxycycline-inducible
- Sequence (P13569 with tags, fused parts or gaps DEL508-508): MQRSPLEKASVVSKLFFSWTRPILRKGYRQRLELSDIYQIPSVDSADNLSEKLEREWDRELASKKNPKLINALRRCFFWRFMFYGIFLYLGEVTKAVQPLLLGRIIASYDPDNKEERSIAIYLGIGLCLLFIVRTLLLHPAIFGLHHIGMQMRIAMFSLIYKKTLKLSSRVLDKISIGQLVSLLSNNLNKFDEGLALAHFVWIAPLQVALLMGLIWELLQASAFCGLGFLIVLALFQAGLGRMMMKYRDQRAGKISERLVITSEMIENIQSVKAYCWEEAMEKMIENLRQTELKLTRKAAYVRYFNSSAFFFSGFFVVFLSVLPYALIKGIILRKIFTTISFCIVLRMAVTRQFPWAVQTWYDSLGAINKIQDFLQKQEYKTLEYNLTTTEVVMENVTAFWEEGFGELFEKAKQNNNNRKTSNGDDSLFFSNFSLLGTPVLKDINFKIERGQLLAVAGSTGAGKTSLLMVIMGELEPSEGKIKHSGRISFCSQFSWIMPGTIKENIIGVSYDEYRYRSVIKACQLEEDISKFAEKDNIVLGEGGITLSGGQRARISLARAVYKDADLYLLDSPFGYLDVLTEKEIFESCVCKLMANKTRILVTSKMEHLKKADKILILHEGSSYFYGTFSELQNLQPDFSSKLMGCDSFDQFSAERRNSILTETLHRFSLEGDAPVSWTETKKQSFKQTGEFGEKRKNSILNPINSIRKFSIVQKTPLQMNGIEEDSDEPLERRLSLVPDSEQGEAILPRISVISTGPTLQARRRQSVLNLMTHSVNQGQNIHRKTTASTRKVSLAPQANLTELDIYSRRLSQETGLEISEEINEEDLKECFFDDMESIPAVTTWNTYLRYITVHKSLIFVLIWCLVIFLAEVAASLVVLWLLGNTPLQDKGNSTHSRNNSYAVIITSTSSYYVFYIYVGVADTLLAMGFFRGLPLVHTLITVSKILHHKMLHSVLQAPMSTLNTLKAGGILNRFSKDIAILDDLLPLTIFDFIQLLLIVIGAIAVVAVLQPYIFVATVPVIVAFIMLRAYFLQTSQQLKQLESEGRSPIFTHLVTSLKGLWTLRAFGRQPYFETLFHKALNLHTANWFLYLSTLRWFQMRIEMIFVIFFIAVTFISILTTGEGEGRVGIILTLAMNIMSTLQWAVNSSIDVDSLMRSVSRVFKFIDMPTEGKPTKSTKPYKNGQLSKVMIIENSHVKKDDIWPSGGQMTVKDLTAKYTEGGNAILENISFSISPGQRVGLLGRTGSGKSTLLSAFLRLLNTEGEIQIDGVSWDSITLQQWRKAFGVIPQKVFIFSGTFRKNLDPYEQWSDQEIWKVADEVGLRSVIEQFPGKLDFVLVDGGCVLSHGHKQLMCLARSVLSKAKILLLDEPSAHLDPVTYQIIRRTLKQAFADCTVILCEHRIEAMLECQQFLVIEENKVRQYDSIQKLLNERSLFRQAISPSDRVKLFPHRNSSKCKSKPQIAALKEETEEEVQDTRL
- Assay overview: Cell Surface Expression-Horse Radish Peroxidase (CSE-HRP) assay, test compound with co-corrector
- Assay type: cell-based
- Condition info: with 2 μM co-corrector
Attribute measured: EC50

Below, each entry is followed by its recorded EC50 result.
Compound	EC50
Cc1ccccc1S(=O)(=O)NC(=O)C1CCc2c(C3=CCOCC3)cccc21 (stereo not drawn) [II-34]	3 to 10 µM
COc1cccc2c1CCC2C(=O)NS(=O)(=O)c1c(C)nc(O)nc1O (stereo not drawn) [III-45]	≥ 10 µM

stdin: Would you kindly share the measured EC50 for COc1ccc(Br)c2c1C(C(=O)NS(=O)(=O)c1cccc3nc(C)cn13)CC2 (stereo not drawn) [Example I-101] ?
stdout: < 3 µM

====

- System under test: F508delCFTR (Homo sapiens, UniProt P13569, DEL508-508)
- Construct: expressed in transfected cells; host or cells: CFBE41o- human lung-derived epithelial cells (CFBE41o-F508delCFTR-HRP), doxycycline-inducible
- Assay overview: Cell Surface Expression-Horse Radish Peroxidase (CSE-HRP) assay, test compound with co-corrector;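 as to Maximum % activity (with co-corrector): percent of 2 µM positive control corrector over DMSO; co-corrector is that same compound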
- Assay type: cell-based
- Condition info: maximum at any tested concentration, normalized to on-plate positive control, with 2 μM co-corrector
Attribute measured: Maximum % activity (with co-corrector)

Compound	Maximum % activity (with co-corrector)
CCC1(C(=O)NS(=O)(=O)c2ccc(OC)cc2)CCc2c(Cl)cccc21 (stereo not shown) [III-142]	++ (≥150 and <350)
COc1ccc(Br)c2c1C(C(=O)NS(=O)(=O)c1cccn3cnnc13)CC2 (stereo not shown) [III-163]	++ (≥150 and <350)
N#CCC1(C(=O)NS(=O)(=O)c2cccc3ccccc23)CCc2c(Cl)cccc21 (stereo not shown) [Example III-155]	++ (≥150 and <350)
Cc1cncc(-c2cccc3c2CCC3C(=O)NS(=O)(=O)c2ccccc2C)c1 (stereo not shown) [III-92]	+ (<150)
COc1cccc2c1CCC[C@H]2C(=O)NS(=O)(=O)c1cccnc1N [III-107]	+++ (≥350)
COCC1(C(=O)NS(=O)(=O)c2cccc3ccccc23)CCc2c(Cl)cccc21 (stereo not shown) [Example III-151]	+ (<150)

Dear colleague, could you send me Maximum % activity (with co-corrector) for each of the items below? Thanks.
1. CCC1(C(=O)NS(=O)(=O)c2cnccc2N2CCN(C(C)C)CC2)CCc2c(Cl)cccc21 (stereo not shown) [III-137]
2. CCC1(C(=O)NS(=O)(=O)c2c(F)cccc2F)CCc2c(Cl)cccc21 (stereo not shown) [III-115]
3. CCC1(C(=O)NS(=O)(=O)c2ccc(C)cc2C)CCc2c(Cl)cccc21 (stereo not shown) [III-114]
4. CCC1(C(=O)NS(=O)(=O)c2cccc(Cl)c2C(=O)O)CCc2c(Cl)cccc21 (stereo not shown) [III-179]
5. CCC1(C(=O)N(C)S(=O)(=O)c2cccc3ccccc23)CCc2c(Cl)cccc21 (stereo not shown) [Example III-150]

stdout:
1: + (<150); 2: ++ (≥150 and <350); 3: ++ (≥150 and <350); 4: + (<150); 5: + (<150)
